# ASSAY_SYSTEM: Ephrin type-B receptor 4 (Homo sapiens)
# METHOD_DESCRIPTION: blockers of EphB4 ligand binding – biochemical, TNYL-RAW peptide probe, fluorescence polarization, primary screen (AID 720);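 note: 0% = DMSO wells and 100% = excess unlabeled TNYL-RAW peptide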
# EXPERIMENTAL_PARAMETERS: EphB4 LBD / TNYL-RAW-Alexa532 peptide, at 7 µM, stronger effect = higher value
In all, about 97,000 compounds went through this assay and about 140 (0.14%) were called active. Many of the other results were omitted from the sample, so actives are more common in it than they were.
ATTRIBUTE_MEASURED: inhibition (%)
Write down the numeric answer in % and omit the unit.

# count of solved cases: 5
>>> print(df.to_string())
                                   molecule  attribute_measured  unit  reported
0  Cc1ccc(NC(=S)N/N=C2/CCCc3c(C)cc(C)cc32)cc1          inhibition     %      0.47
1  O=C(c1ccc(CN2CCOCC2)cc1)N1CCN(c2ccccc2F)CC1          inhibition     %     -2.74
2  CCCOc1cc(C)c(S(=O)(=O)n2nnc3ccccc32)cc1C          inhibition     %      -0.8
3      O=S(=O)(N1CCOCC1)N1CCN(c2ccccc2F)CC1          inhibition     %      20.7
4  O=C(OCN1C(=O)c2ccccc2C1=O)/C(=C\c1ccco1)NC(=O)c1ccccc1          inhibition     %     -9.89

Lookup: Can you look up the measured inhibition of `Cc1cccc(C)c1N1CCN(S(=O)(=O)N2CCOCC2)CC1` for me?
Found: 3.9

Lookup: Another molecule to check: `CCCc1nnc(NC(=O)c2cccs2)s1`
Found: -2.26

Lookup: Record: `Nc1nc(C23CC4CC(CC(C4)C2)C3)cs1`
Found: -1.67

Lookup: Next molecule up: Nc1ccc(C(=O)OCC(=O)NC2CCCc3ccccc32)cc1[N+](=O)[O-] (configuration not stated)
Found: -2.7

Lookup: Try this molecule too: `O=C(Cn1ccc([N+](=O)[O-])n1)NCc1cccs1`
Found: -8.7

Lookup: // same read-out, input: `CSc1cc(C)n(-c2ccccc2C)c(=S)c1C(C)=O`
Found: -5.85

Lookup: // same read-out, input: `CNC(=O)CN1C(=O)c2ccccc2S1(=O)=O`
Found: -4.4

----------
# ASSAY_SYSTEM: Ephrin type-B receptor 4 (Homo sapiens)
# METHOD_DESCRIPTION: blockers of EphB4 ligand binding – biochemical, TNYL-RAW peptide probe, fluorescence polarization, primary screen (AID 720);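 note: 0% = DMSO wells and 100% = excess unlabeled TNYL-RAW peptide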
# EXPERIMENTAL_PARAMETERS: EphB4 LBD / TNYL-RAW-Alexa532 peptide, at 7 µM, stronger effect = higher value
Out of some 97,000 compounds screened, about 140 (0.14%) were called active. The list comes from a sample in which actives are over-represented; it also holds close analogues and randomly drawn compounds.
ATTRIBUTE_MEASURED: inhibition (%)
Field format: number, assumed %, no unit text.

A selection of reference data follows.
In [3]: df
Out[3]:
                                   compound  attribute_measured  reported
0  Cc1ccc(NC(=O)C(C)c2cccc(C(=O)c3ccccc3)c2)cc1 (configuration not stated)          inhibition      -1.1
1  CC(=O)Nc1cccc(/C(C)=N/NC(=O)c2ccccc2Cl)c1          inhibition      2.34
2        O=S(=O)(NN=C1CCCCCCC1)c1ccc(Br)cc1          inhibition      5.67
3  CC(C)NC(=O)CSc1ccccc1C(=O)NCc1ccc2c(c1)OCO2          inhibition      2.19
4  COc1ccc(N(CC(=O)NC2CCCCC2)C(=O)CNC(=O)c2ccco2)c(OC)c1          inhibition       0.8
5  COc1ccc(CC(NC(C)=O)C(=O)N2CCN(C(=O)Nc3cccc(Cl)c3)CC2)cc1OC (configuration not stated)          inhibition     -2.32

Kindly review the next compound as well.
Lookup: Can you share its inhibition? I mean this compound: `COC(=O)c1ccc(NC(=O)C23CC4CC(C2)CC(n2cnc(Cl)n2)(C4)C3)cc1`
Found: 3.33

----------
# ASSAY_SYSTEM: Ephrin type-B receptor 4 (Homo sapiens)
# METHOD_DESCRIPTION: blockers of EphB4 ligand binding – biochemical, TNYL-RAW peptide probe, fluorescence polarization, primary screen (AID 720);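 note: 0% = DMSO wells and 100% = excess unlabeled TNYL-RAW peptide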
# EXPERIMENTAL_PARAMETERS: EphB4 LBD / TNYL-RAW-Alexa532 peptide, at 7 µM, stronger effect = higher value
Hit rate of the full screen: of about 97,000 compounds, about 140 (0.14%) were called active. The entries come from a sample that favours actives as a whole.
ATTRIBUTE_MEASURED: inhibition (%)
Quick reminder: number only, in %, skip the unit.

Example molecules with recorded inhibition:
In [3]: df
Out[3]:
                                   molecule  attribute_measured  reported
0    Cc1cc(N)n2nc(-c3ccc(C(C)(C)C)cc3)cc2n1          inhibition     -2.84
1  CCc1nn(-c2cc(Oc3cccc4ccccc34)nc(-c3ccccc3)n2)c(N)c1C#N          inhibition     -9.42

Lookup: Please give the measured inhibition for this molecule: Cc1ccc(NC2(C#N)C(=O)Nc3ccccc32)cc1 (stereo not drawn)
Found: 0.9

Lookup: Another molecule to check: `CN(C)c1nc2n(c(=O)n1)CCO2`
Found: 17.6

Lookup: What would you report for `CCOc1ccc(Nc2nc(Cc3nnc(SCC(=O)c4ccc(C)cc4)o3)cs2)cc1` ?
Found: 2.63

Lookup: // repeat for `Cc1cccc(N2CCN(C(=O)CN(C)S(=O)(=O)c3ccc4c(c3)CCC(=O)N4)CC2)c1C` and report
Found: 3.05

Lookup: Queued: O=C(C1=C(O)C(=O)N(Cc2ccccc2)C1c1cccnc1)c1ccco1 (stereo not drawn)
Found: 27

----------
# ASSAY_SYSTEM: Ephrin type-B receptor 4 (Homo sapiens) (UniProt P54760)
# Sequence (P54760 whole entry, looked up): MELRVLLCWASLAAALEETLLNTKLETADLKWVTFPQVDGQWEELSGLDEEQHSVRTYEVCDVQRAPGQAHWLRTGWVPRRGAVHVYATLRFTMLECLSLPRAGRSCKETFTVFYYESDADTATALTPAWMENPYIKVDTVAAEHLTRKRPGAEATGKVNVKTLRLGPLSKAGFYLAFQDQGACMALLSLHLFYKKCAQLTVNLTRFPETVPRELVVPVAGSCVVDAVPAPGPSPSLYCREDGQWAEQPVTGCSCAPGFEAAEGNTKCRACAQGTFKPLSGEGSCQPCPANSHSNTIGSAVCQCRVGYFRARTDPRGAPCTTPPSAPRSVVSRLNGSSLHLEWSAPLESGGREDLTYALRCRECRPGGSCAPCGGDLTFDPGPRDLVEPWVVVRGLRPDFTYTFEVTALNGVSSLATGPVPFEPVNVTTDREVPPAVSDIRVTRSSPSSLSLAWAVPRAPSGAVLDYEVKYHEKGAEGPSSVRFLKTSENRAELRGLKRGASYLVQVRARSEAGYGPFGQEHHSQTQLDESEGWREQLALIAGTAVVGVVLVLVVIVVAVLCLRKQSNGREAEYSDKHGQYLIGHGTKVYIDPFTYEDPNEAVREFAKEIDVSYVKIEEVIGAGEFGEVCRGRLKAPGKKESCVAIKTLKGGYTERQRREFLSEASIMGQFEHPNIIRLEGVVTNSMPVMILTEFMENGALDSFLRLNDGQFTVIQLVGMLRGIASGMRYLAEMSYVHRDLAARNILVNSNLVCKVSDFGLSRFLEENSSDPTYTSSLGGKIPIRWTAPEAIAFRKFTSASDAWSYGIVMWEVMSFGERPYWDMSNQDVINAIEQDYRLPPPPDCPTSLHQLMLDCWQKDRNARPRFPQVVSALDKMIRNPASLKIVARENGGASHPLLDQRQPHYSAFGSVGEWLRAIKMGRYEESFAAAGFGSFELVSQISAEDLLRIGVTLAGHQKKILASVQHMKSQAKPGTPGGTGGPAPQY
# METHOD_DESCRIPTION: blockers of EphB4 ligand binding – biochemical, TNYL-RAW peptide probe, fluorescence polarization, primary screen (AID 720);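 note: 0% = DMSO wells and 100% = excess unlabeled TNYL-RAW peptide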
# EXPERIMENTAL_PARAMETERS: EphB4 LBD / TNYL-RAW-Alexa532 peptide, at 7 µM, stronger effect = higher value
Among all 97,000 compounds or so, about 140 (0.14%) were called active. Shown is part of a subset that was picked to be rich in actives.
Listed here: items and their measured inhibition.
State just the number; it will be interpreted in %.

                                   compound                              assay_system  attribute_measured  reported
0            Oc1ccc(/C=N/NC2=NCCCCC2)c(O)c1  Ephrin type-B receptor 4 (Homo sapiens) (UniProt P54760)          inhibition      2.04
1          COC(=O)Cc1cc(=O)oc2c(C)c(O)ccc12  Ephrin type-B receptor 4 (Homo sapiens) (UniProt P54760)          inhibition     -7.76
2  O=C(CN1CCN(S(=O)(=O)c2ccc3ccccc3c2)CC1)NC(=O)NC1CCCCC1  Ephrin type-B receptor 4 (Homo sapiens) (UniProt P54760)          inhibition      5.63
3  Cc1cc(=O)oc2cc(OC(C)C(=O)Nc3ccc(N4CCOCC4)cc3)ccc12 (centres undefined)  Ephrin type-B receptor 4 (Homo sapiens) (UniProt P54760)          inhibition      8.06
4               CCCCNC(=S)NNC(=O)c1cc(C)on1  Ephrin type-B receptor 4 (Homo sapiens) (UniProt P54760)          inhibition      -0.6
5  O=C1Nc2cc(Cl)c(Cl)cc2N(O)N1c1cc(Cl)cc(Cl)c1  Ephrin type-B receptor 4 (Homo sapiens) (UniProt P54760)          inhibition      2.41
6  CCOC(=O)C1Sc2[nH]c(=O)sc2C(c2ccc(Cl)cc2)C1C(=O)OCC (centres undefined)  Ephrin type-B receptor 4 (Homo sapiens) (UniProt P54760)          inhibition      6.17
7      COc1cc(C)c(C(C)C)cc1S(=O)(=O)n1ccnc1  Ephrin type-B receptor 4 (Homo sapiens) (UniProt P54760)          inhibition      1.74
8  NC(=O)COc1ccc(/C=N/NC(=O)C2CCCN2S(=O)(=O)c2ccc(Cl)cc2)cc1 (centres undefined)  Ephrin type-B receptor 4 (Homo sapiens) (UniProt P54760)          inhibition      0.72
9  O=C(C1=C(O)C(=O)N(Cc2ccccc2)C1c1ccco1)c1ccco1 (centres undefined)  Ephrin type-B receptor 4 (Homo sapiens) (UniProt P54760)          inhibition     -8.37

Lookup: Request: inhibition, test system Ephrin type-B receptor 4 (Homo sapiens) (UniProt P54760), entry `Cc1cc(Nc2ccccc2)nc(N)n1`
Found: -7.64

Lookup: # repeat for `O=C(COC(=O)c1n[nH]c2ccccc12)NCc1ccccc1`
Found: 1.83

Lookup: Repeat with `CC(=O)c1cc2c(cc1NC(=O)CN1CCCCCC1)OCO2`
Found: -6.18
